# System: Human immunodeficiency virus 1
# measurement.notes: Inhibition of 50% of the integrase-mediated catalysis of the Y-oligo substrate with 95% confidence interval
# Format: functional
# settings: Human immunodeficiency virus 1
quantity.name: IC50 (µM)

Use these answered entries as a reference point.
compound="NC(=O)C(Cc1ccc(O)c(O)c1)C(Cc1ccc(O)c(O)c1)C(=O)O (stereo not given)" test_target="Human immunodeficiency virus 1" measured_result=2.84
compound="CCN(CC)C(=O)C(Cc1ccc(O)c(O)c1)C(Cc1ccc(O)c(O)c1)C(=O)O (stereo not given)" test_target="Human immunodeficiency virus 1" measured_result=5.27

I: CC(=O)Oc1ccc(/C=C/C(=O)OC(C(=O)O)C(OC(=O)/C=C/c2ccc(OC(C)=O)c(OC(C)=O)c2)C(=O)O)cc1OC(C)=O (stereo not given)
II: O=C(/C=C/c1ccc(O)c(O)c1)NCC(OC(=O)/C=C\c1ccc(O)c(O)c1)C(=O)O (stereo not given)
Just tell me: smaller IC50 value, I or II ? Answer by quoting the chosen item's label.
II
(II: 0.19 µM, I: 15.7 µM)
